Value source: patent US9556191B2

assay name: Rat PK (pharmacokinetics after iv and po administration)
Type: in vivo
condition context: male, SD, plasma, iv(2 g/kg) [sic], method says 2 mg/kg, read-out: Vss
Protocol: […] Samples treated with liquid-liquid extraction and chromatographic separation were analyzed by triple quadrupole tandem mass spectrometer in multiple reaction monitoring (MRM) mode for quantitative analysis. […] The content of each test compound in rat plasma after administration was determined by LC/MS/MS. […]
Measured Vd accompanies every entry in the list below.

chemical smiles: COc1cc2ncnc(Nc3ccc(OCc4ccccn4)c(Cl)c3)c2cc1NC(=O)/C=C/CN1C[C@@H]2OCCO[C@@H]2C1
Vd: 0.88 L/kg

chemical smiles: COCCOc1cc2ncnc(Nc3ccc(Cl)c(Cl)c3F)c2cc1NC(=O)/C=C/CN1C[C@@H]2OCCO[C@@H]2C1
Vd: 2.77 L/kg

chemical smiles: COc1cc2ncnc(Nc3ccc4c(cnn4Cc4cccc(F)c4)c3)c2cc1NC(=O)/C=C/CN1C[C@@H]2OCCO[C@@H]2C1
Vd: 3.65 L/kg

chemical smiles: CCOc1cc2ncnc(Nc3ccc(Cl)c(Cl)c3F)c2cc1NC(=O)/C=C/CN1C[C@@H]2OCCO[C@@H]2C1
Vd: 2.97 L/kg

chemical smiles: CCOc1cc2ncnc(Nc3ccc4c(cnn4Cc4cccc(F)c4)c3)c2cc1NC(=O)/C=C/CN1C[C@@H]2OCCO[C@@H]2C1
Vd: 6.66 L/kg

chemical smiles: COc1cc2ncnc(Nc3ccc(Cl)c(Cl)c3F)c2cc1NC(=O)/C=C/CN1C[C@@H]2OCCO[C@@H]2C1
Vd: 2.58 L/kg

chemical smiles: O=C(/C=C/CN1C[C@@H]2OCCO[C@@H]2C1)Nc1cc2c(Nc3ccc(Cl)c(Cl)c3F)ncnc2cc1O[C@H]1CCOC1
Vd: 3.18 L/kg

====

Measured IC50 accompanies every entry in the list below.
target or system: HER2 (human epidermal growth factor receptor 2) (Homo sapiens (Human))
Sequence (P04626 23-1255): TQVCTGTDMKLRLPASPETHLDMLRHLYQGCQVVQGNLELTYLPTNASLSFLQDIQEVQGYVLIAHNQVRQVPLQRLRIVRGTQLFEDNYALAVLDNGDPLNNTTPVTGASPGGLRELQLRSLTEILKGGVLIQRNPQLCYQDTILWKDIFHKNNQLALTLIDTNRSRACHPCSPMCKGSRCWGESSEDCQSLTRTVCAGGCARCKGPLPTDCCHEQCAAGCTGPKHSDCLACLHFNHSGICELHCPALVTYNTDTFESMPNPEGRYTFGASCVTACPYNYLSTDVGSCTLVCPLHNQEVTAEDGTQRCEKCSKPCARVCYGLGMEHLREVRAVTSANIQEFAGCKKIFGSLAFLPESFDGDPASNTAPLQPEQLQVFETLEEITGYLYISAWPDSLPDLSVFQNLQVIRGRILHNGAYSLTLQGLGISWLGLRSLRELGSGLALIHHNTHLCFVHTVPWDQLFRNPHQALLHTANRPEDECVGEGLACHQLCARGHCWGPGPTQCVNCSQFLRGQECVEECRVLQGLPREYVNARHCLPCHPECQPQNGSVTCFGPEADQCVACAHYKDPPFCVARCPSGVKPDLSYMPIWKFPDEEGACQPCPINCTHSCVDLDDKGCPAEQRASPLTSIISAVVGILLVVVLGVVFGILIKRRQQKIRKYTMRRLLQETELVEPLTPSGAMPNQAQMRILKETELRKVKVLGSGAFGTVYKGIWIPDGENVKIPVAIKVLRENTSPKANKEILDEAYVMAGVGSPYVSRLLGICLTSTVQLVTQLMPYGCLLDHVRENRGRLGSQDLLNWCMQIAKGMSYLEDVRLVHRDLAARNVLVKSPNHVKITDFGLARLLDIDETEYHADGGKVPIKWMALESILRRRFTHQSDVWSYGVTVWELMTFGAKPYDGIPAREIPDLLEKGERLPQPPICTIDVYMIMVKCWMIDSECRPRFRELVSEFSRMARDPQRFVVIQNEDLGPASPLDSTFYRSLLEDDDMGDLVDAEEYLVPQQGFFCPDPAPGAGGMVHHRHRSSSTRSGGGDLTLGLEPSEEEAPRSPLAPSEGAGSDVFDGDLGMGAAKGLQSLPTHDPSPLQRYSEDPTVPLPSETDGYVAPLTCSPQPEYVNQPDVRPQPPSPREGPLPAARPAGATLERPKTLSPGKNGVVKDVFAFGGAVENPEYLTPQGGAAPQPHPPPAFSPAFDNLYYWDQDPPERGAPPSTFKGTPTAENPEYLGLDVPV
assay name: In vitro kinase inhibitory activity, HER-2
Format: biochemical
quantity kind: IC50 (nM)

compound: COc1cc2ncnc(Nc3ccc(Cl)c(Cl)c3F)c2cc1NC(=O)/C=C/CN1C[C@@H]2OCCO[C@@H]2C1 [Example 31]
numeric readout: 9.1
//
compound: COCCOc1cc2ncnc(Nc3ccc(Cl)c(Cl)c3F)c2cc1NC(=O)/C=C/CN1C[C@@H]2OCCO[C@@H]2C1 [Example 33]
numeric readout: 9.6
//
compound: CCOc1cc2ncnc(Nc3ccc(Cl)c(Cl)c3F)c2cc1NC(=O)/C=C/CN1C[C@@H]2OCCO[C@@H]2C1 [Example 32]
numeric readout: 7
//
compound: O=C(/C=C/CN1C[C@@H]2OCCO[C@@H]2C1)Nc1cc2c(Nc3ccc(Cl)c(Cl)c3F)ncnc2cc1O[C@H]1CCOC1 [Example 34]
numeric readout: 20.3
//
compound: CCOc1cc2ncnc(Nc3ccc(OCc4cccc(F)c4)c(Cl)c3)c2cc1NC(=O)/C=C/CN1C[C@@H]2OCCO[C@@H]2C1 [Example 30]
numeric readout: 6.6
//
compound: CCOc1cc2ncnc(Nc3ccc(F)c(Cl)c3)c2cc1NC(=O)/C=C/CN1C[C@@H]2OCCO[C@@H]2C1 [Example 3]
numeric readout: 8.1
//
compound: COCCOc1cc2ncnc(Nc3ccc(F)c(Cl)c3)c2cc1NC(=O)/C=C/CN1C[C@@H]2OCCO[C@@H]2C1 [Example 6]
numeric readout: 10.4
//
compound: COc1cc2ncnc(Nc3ccc(OCc4cccc(F)c4)c(Cl)c3)c2cc1NC(=O)/C=C/CN1C[C@@H]2OCCO[C@@H]2C1 [Example 29]
numeric readout: 3.7
//
compound: O=C(/C=C/CN1C[C@@H]2OCCO[C@@H]2C1)Nc1ccc2ncnc(Nc3ccc(OCc4ccccn4)c(Cl)c3)c2c1 [Example 22]
numeric readout: 1.9
//
compound: O=C(/C=C/CN1C[C@@H]2OCCO[C@@H]2C1)Nc1cc2c(Nc3ccc(F)c(Cl)c3)ncnc2cc1OCC(F)(F)F [Example 7]
numeric readout: 44
//
compound: O=C(/C=C/CN1C[C@@H]2OCCO[C@@H]2C1)Nc1cc2c(Nc3ccc(OCc4ccccn4)c(Cl)c3)ncnc2cc1O[C@H]1CCOC1 [Example 25]
numeric readout: 2.5
//
compound: COc1cc2ncnc(Nc3ccc(F)c(Cl)c3F)c2cc1NC(=O)/C=C/CN1C[C@@H]2OCCO[C@@H]2C1 [Example 35]
numeric readout: 17.8
//
compound: CCOc1cc2ncnc(Nc3ccc(OCc4ccccn4)c(Cl)c3)c2cc1NC(=O)/C=C/CN1C[C@@H]2OCCO[C@@H]2C1 [Example 24]
numeric readout: 1.7
